# Test system: G. duodenalis BRIS/91/HEPU/1279
# ASSAY REMARKS: Primary Giardia screen at 10 µM (live-cell imaging, automated counting)
# Format: cell-based, Giardia duodenalis
# DETAILS: 48 h, first singlicate assay
READOUT TYPE: % Inhibition n=1 48h (%)
Answers are plain numbers, in %.

CCOc1ccc(-n2c(=O)c3c4c(sc3n(Cc3cccnc3)c2=O)CCC4)cc1
0.0
CN(C)C(=O)c1[nH]nc2c1CN(C(=O)CCc1ccccc1)CC2
0.0
COc1ccc2oc(-c3noc(C(=O)NCCN4CCCCCC4)n3)c(C)c2c1
52.1
CN(C)S(=O)(=O)c1ccc2c(c1)cc(C(=O)NCCCN1CCc3ccccc3C1)n2C
0.0
CN(C)c1ccc(NC(=O)C2=NN(Cc3ccc(F)cc3)C(=O)CC2)cc1
8.0

# per-item lookup of % Inhibition n=1 48h; items listed below
1. Fc1ccc(C2=NC(c3cccs3)=Nc3cc(Cl)ccc3N2)cc1
2. Cc1nn(-c2ccc(F)cc2)c2nc(N3CCCN(C(=O)Cc4cccs4)CC3)sc12
3. Cc1csc(/C(=C\c2cc(C)n(-c3ccnn3C(C)C)c2C)CN)n1
4. Cc1ccc(S(=O)(=O)Nc2ccc3c(c2)N(C(=O)c2ccco2)CCC3)cc1C

1: 0.0; 2: 27.0; 3: 5.0; 4: 12.2

// data source = paper PMC9775191
